target: CDK1B (Homo sapiens (Human), UniProt P06493); test: In-vitro kinase assay screen CDK1B (Table 4); assay type: biochemical; conditions: Table 4, Run 1; read-out: CDK1B Run 1
Sequence (P06493 whole entry): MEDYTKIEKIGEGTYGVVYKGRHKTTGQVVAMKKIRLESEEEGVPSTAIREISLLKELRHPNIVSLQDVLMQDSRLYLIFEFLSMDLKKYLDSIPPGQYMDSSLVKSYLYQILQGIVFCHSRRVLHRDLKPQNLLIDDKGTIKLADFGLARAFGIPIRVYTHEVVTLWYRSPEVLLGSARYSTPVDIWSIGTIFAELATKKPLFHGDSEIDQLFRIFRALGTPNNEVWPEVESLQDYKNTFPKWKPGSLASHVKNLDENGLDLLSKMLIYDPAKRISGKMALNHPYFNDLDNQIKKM
Sequence (P14635 whole entry partner): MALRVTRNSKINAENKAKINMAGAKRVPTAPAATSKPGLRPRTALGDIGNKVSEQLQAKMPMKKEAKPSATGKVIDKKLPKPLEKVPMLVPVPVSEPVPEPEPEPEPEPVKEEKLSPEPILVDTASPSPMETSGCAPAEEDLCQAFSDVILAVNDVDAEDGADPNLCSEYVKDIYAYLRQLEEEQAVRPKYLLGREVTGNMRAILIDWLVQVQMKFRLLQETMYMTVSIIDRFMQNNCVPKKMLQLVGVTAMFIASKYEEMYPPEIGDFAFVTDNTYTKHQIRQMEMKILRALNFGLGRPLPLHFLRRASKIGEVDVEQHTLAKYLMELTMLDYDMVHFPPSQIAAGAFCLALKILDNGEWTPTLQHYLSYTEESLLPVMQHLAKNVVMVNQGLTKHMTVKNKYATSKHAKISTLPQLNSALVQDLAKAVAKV
pIC50: −log10 of the molar value.
Outcome Measure: pIC50

CCC(Nc1nc(NCc2ccc(C(F)(F)F)nc2)c2ncn(C(C)C)c2n1)C(O)C(F)(F)F (centres unmarked) [[17]] :: 5.21
CC(C)n1cnc2c(NCc3cccnc3)nc(NCC(O)(C(F)(F)F)C(F)(F)F)nc21 [[18]] :: 5.23

----------
molecular target: CYP2D6 (Homo sapiens (Human)); test: CYP2D6 inhibition, human liver microsomes, dextromethorphan; type: in vitro ADME
Sequence (P10635 whole entry): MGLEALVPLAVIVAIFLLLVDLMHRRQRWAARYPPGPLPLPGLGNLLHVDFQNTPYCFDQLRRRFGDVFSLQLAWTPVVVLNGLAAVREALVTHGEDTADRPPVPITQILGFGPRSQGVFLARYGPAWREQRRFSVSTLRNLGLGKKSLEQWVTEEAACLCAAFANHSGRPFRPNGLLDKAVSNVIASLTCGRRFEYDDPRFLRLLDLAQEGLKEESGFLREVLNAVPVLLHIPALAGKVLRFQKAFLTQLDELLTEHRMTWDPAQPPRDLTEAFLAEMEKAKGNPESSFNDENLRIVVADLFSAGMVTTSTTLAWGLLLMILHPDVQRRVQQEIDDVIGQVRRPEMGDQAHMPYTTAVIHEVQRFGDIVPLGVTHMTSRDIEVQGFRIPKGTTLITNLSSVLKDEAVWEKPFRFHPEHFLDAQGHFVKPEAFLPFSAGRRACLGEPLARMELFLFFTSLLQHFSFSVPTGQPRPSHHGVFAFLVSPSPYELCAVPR
Outcome Measure: IC50

Sample records with IC50:
CC[C@@H](Nc1nc(NCc2cccnc2)c2ncn(C(C)C)c2n1)C(C)(C)O [Compound [A1]] :: > 25 µM
CC[C@H](Nc1nc(NCc2cccnc2)c2ncn(C(C)C)c2n1)[C@@H](C)O [[A3]] :: > 25 µM
CC[C@H](Nc1nc(NCc2cccnc2)c2ncn(C(C)C)c2n1)C(C)(C)O [[A2]] :: > 25 µM

Alright, here's another molecule for you.
Task: Give CYP2D6 (Homo sapiens (Human)) IC50 for CC[C@H](Nc1nc(NCc2cnc(C)cc2C)c2ncn(C(C)C)c2n1)[C@@H](C)O [Compound [1]]
Output: > 25 µM

----------
target: CYP1A (Homo sapiens, UniProt P05177); experiment: CYP1A inhibition, human liver microsomes, ethoxyresorufin; format: in vitro ADME
Sequence (P05177 2-516 limits assumed): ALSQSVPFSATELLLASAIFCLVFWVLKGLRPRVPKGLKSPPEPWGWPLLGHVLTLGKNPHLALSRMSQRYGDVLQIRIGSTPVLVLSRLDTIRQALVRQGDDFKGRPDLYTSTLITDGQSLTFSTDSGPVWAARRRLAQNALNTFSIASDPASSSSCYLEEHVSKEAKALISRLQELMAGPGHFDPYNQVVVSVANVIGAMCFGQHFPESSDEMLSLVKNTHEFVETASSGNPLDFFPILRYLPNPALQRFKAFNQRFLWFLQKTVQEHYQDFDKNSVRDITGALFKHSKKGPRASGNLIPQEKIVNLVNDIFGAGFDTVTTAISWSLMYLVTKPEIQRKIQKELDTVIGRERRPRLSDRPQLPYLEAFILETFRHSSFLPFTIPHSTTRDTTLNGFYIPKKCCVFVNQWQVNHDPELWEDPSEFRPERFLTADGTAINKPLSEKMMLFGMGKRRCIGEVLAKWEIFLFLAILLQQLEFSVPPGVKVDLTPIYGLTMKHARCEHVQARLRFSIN
Listed here are compounds together with their documented IC50 at 5 min.

Sample records with IC50 at 5 min:
CC[C@@H](Nc1nc(NCc2cccnc2)c2ncn(C(C)C)c2n1)C(C)(C)O [Compound [A1]] :: > 25 µM
CC[C@H](Nc1nc(NCc2cccnc2)c2ncn(C(C)C)c2n1)C(C)(C)O [[A2]] :: > 25 µM

Alright, here's another compound for you.
Task: Entry CC[C@H](Nc1nc(NCc2cccnc2)c2ncn(C(C)C)c2n1)[C@@H](C)O [[A3]] : reported IC50 at 5 min = ?
Output: > 25 µM

----------
Listed here are compounds together with their documented IC50.
biological target: CYP2C9 (Homo sapiens (Human), UniProt P11712); assay: CYP2C9 inhibition, human liver microsomes, tolbutamide; assay type: in vitro ADME
Sequence (P11712 whole entry): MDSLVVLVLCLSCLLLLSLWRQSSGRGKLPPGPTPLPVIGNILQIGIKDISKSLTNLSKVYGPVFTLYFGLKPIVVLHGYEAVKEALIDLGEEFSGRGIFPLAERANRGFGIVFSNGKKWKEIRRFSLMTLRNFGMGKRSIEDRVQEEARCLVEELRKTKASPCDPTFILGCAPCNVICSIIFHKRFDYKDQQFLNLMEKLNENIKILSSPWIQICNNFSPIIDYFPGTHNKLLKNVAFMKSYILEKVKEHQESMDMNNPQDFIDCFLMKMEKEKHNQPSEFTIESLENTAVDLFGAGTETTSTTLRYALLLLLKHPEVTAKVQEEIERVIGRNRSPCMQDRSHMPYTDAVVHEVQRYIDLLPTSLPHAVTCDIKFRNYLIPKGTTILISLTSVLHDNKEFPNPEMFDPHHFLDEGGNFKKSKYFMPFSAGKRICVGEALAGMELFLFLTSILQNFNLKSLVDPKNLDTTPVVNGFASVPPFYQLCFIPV

Task: Entry CC[C@H](Nc1nc(NCc2cccnc2)c2ncn(C(C)C)c2n1)C(C)(C)O [[A2]] : reported IC50 = ?
Output: > 25 µM

Task: For CC[C@H](Nc1nc(NCc2cnc(C)cc2C)c2ncn(C(C)C)c2n1)[C@@H](C)O [Compound [1]] then?
Output: 23.8 µM

Task: For CC[C@H](Nc1nc(NCc2cccnc2)c2ncn(C(C)C)c2n1)[C@@H](C)O [[A3]] then?
Output: > 25 µM

Task: For CC[C@@H](Nc1nc(NCc2cccnc2)c2ncn(C(C)C)c2n1)C(C)(C)O [Compound [A1]] then?
Output: > 25 µM

----------
Molecular target: CDK2/cyclin E (Homo sapiens (Human), UniProt P24941)
Experiment: In-vitro recombinant kinase assay CDK2/cyclin E
Format: biochemical
Settings: Table 2; average of duplicate points; read-out: CDK2/Cyclin E Average IC50
Method: To evaluate the in-vitro kinase potency of the compounds, they were screened against CDK 2 and CDK9. Kinase assays were performed in 96-well plates using recombinant CDK/cyclins generated at Cyclacel. Ltd Dundee, UK. […] After washing 3 times with 75 mM orthophosphoric acid, plates were dried, scintillant added and incorporated radioactivity measured in a scintillation counter (TopCount, Packard Instruments, Pangbourne, Berks, UK). […]
pIC50: −log10 of the molar value.
Outcome Measure: pIC50

Sample records with pIC50:
CC[C@H](Nc1nc(NC2CCC2)c2ncn(C(C)C)c2n1)[C@@H](C)O [[8]] :: 6.80
CC[C@H](Nc1nc(NCc2ncccc2C)c2ncn(C(C)C)c2n1)[C@@H](C)O [[13]] :: 6.11

P: CC[C@H](Nc1nc(NCc2cccc(F)c2)c2ncn(C(C)C)c2n1)[C@@H](C)O [[4]]
Q: CC[C@H](Nc1nc(NCc2ccncc2)c2ncn(C(C)C)c2n1)[C@@H](C)O [[9]]
R: CC[C@H](Nc1nc(NCc2cccnc2)c2ncn(CC3CC3)c2n1)[C@@H](C)O [[5]]
Task: Which order do these items take when sorted by rising pIC50? List them. Labels, ranked as asked.
Output: R, Q, P
(R: 6.08, Q: 7.40, P: 7.70)

----------
target: CDK2/cyclin E (Homo sapiens (Human)); test: In-vitro recombinant kinase assay CDK2/cyclin E; assay type: biochemical; conditions: Table 2; average of duplicate points; read-out: CDK2/Cyclin E Average IC50
Outcome Measure: IC50 (µM)

Sample records with IC50:
CC[C@H](Nc1nc(NC2CC2)c2ncn(C(C)C)c2n1)[C@@H](C)O [[6]] :: 0.05
CC[C@H](Nc1nc(NCc2ccc(C)nc2)c2ncn(C(C)C)c2n1)[C@@H](C)O [[2]] :: 0.52

I: CC[C@H](Nc1nc(NCc2cc(C)nc(C)c2)c2ncn(C(C)C)c2n1)[C@@H](C)O [[10]]
II: CC[C@H](Nc1nc(NCc2cccc(Cl)c2)c2ncn(C(C)C)c2n1)[C@@H](C)O [[3]]
III: CC(C)n1cnc2c(NCc3cccnc3)nc(NC[C@@H](C)O)nc21 [[14]]
IV: CC(C)n1cnc2c(NCc3cccnc3)nc(NCC(O)C(F)(F)F)nc21 (centres unmarked) [[15]]
Task: Which order do these items take when sorted by rising IC50? List them. Labels, ranked as asked.
Output: II, I, III, IV

----------
test system: MCF7; assay: Alamar blue cytotoxicity assay MCF7; assay type: cell-based; conditions: Homo sapiens, 72 hours, read-out: cellular cytotoxicity IC50 MCF7
Outcome Measure: IC50 (nM)
Respond numerically; units are nM and should not be typed.

Task: Entry CC[C@H](Nc1nc(NCc2cnc(C)cc2C)c2ncn(C(C)C)c2n1)[C@@H](C)O [Compound [1]] : reported IC50 = ?
Output: 260

----------
Listed here are molecules together with their documented IC50.
target: CYP2C19 (Homo sapiens (Human), UniProt P33261); experiment: CYP2C19 inhibition, human liver microsomes, mephenyloin; type: in vitro ADME
Sequence (P33261 whole entry): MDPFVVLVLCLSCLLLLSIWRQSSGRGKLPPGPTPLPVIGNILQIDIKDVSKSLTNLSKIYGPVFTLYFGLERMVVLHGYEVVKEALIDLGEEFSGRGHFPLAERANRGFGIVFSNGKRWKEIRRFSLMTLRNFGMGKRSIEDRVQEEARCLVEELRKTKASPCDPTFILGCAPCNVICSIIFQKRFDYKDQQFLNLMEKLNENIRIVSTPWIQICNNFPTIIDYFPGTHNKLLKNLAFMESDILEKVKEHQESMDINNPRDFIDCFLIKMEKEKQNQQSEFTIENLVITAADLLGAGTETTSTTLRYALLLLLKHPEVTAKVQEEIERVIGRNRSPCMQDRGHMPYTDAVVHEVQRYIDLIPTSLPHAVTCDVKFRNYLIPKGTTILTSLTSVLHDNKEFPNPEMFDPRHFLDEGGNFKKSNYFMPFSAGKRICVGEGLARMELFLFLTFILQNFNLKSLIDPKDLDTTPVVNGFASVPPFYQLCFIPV

CC[C@H](Nc1nc(NCc2cnc(C)cc2C)c2ncn(C(C)C)c2n1)[C@@H](C)O [Compound [1]] :: > 25 µM

Task: Give CYP2C19 (Homo sapiens (Human), UniProt P33261) IC50 for CC[C@H](Nc1nc(NCc2cccnc2)c2ncn(C(C)C)c2n1)C(C)(C)O [[A2]]
Output: > 25 µM

Task: For CC[C@H](Nc1nc(NCc2cccnc2)c2ncn(C(C)C)c2n1)[C@@H](C)O [[A3]] then?
Output: > 25 µM

Task: For CC[C@@H](Nc1nc(NCc2cccnc2)c2ncn(C(C)C)c2n1)C(C)(C)O [Compound [A1]] then?
Output: 19.9 µM

----------
Target: CDK9/cyclin T1 (Homo sapiens (Human), UniProt P50750)
Sequence (P50750 whole entry, species assumed): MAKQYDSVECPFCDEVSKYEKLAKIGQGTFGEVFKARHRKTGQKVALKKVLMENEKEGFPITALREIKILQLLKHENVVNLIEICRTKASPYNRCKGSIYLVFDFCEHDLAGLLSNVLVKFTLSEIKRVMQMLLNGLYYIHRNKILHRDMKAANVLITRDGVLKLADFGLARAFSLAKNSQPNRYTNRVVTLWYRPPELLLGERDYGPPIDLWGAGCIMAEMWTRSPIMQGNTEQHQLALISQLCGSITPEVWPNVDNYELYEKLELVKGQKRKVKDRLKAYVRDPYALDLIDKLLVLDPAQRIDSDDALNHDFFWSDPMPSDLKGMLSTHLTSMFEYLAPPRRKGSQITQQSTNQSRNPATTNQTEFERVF
Sequence (O60563 whole entry partner, species assumed): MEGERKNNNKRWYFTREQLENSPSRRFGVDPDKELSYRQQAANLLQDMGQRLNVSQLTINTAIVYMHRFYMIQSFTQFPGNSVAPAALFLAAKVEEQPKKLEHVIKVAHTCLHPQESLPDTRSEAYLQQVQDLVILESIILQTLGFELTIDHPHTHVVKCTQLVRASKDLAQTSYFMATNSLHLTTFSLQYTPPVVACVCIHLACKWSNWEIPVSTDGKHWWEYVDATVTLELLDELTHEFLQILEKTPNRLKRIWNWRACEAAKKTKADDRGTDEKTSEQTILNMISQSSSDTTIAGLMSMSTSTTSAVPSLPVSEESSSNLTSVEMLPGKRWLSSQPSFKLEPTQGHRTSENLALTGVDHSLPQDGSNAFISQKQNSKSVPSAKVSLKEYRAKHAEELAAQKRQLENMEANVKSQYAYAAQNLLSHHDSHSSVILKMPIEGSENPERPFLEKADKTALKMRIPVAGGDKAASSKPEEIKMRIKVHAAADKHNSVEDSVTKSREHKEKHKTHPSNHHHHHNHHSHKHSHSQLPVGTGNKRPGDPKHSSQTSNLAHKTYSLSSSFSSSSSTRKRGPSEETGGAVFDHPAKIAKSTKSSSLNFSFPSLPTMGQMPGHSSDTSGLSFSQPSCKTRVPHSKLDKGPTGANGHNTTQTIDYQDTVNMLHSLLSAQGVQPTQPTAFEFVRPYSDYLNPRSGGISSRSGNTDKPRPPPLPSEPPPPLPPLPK
Test: In-vitro recombinant kinase assay CDK9/cyclin T1
Format: biochemical
Conditions: Table 2; average of duplicate points
Experimental: To evaluate the in-vitro kinase potency of the compounds, they were screened against CDK 2 and CDK9. Kinase assays were performed in 96-well plates using recombinant CDK/cyclins generated at Cyclacel. Ltd Dundee, UK. […] After washing 3 times with 75 mM orthophosphoric acid, plates were dried, scintillant added and incorporated radioactivity measured in a scintillation counter (TopCount, Packard Instruments, Pangbourne, Berks, UK). […]
pIC50: −log10 of the molar value.
Outcome Measure: pIC50

Sample records with pIC50:
CC[C@H](Nc1nc(NCc2cccc(F)c2)c2ncn(C(C)C)c2n1)[C@@H](C)O [[4]] :: 7.10
CC[C@H](Nc1nc(NCc2cccc(C)n2)c2ncn(C(C)C)c2n1)[C@@H](C)O [[12]] :: 5.69
CC[C@H](Nc1nc(NC2CCC2)c2ncn(C(C)C)c2n1)[C@@H](C)O [[8]] :: 6.30
CC[C@H](Nc1nc(NCC2CC2)c2ncn(C(C)C)c2n1)[C@@H](C)O [[7]] :: 6.42
CC[C@H](Nc1nc(NCc2cc(C)nc(C)c2)c2ncn(C(C)C)c2n1)[C@@H](C)O [[10]] :: 5.98
CC[C@H](Nc1nc(NCc2cccnc2)c2ncn(CC3CC3)c2n1)[C@@H](C)O [[5]] :: 5.10

A: CCC(Nc1nc(NCc2cccnc2)c2ncn(C(C)C)c2n1)C(O)C(F)(F)F (stereo not drawn) [[16]]
B: CC(C)n1cnc2c(NCc3cccnc3)nc(NCC(O)C(F)(F)F)nc21 (stereo not drawn) [[15]]
C: CC[C@H](Nc1nc(NC2CC2)c2ncn(C(C)C)c2n1)[C@@H](C)O [[6]]
Task: Which order do these items take when sorted by rising pIC50? List them. Labels, ranked as asked.
Output: B, A, C
